CLhep predicted: recorded values
test: Clearance in presence of human hepatocytes; type: ADME, cell-based, Liver, Hepatocyte
A complete answer gives the number and then names the unit.

| substanceSmiles | endpointResult |
| --- | --- |
| CCONC(=O)c1cn(C)c(=O)c(F)c1Nc1ccc(Br)cc1F | 2 mL/min/kg |
| Cn1cc(C(N)=O)c(Nc2ccc(Br)cc2F)c(F)c1=O | 9 mL/min/kg |
| CONC(=O)c1cn(C)c(=O)c(C)c1Nc1ccc(Br)cc1F | 5 mL/min/kg |
| Cc1c(Nc2ccc(Br)cc2F)c(C(=O)NOCCO)cn(C)c1=O | 6 mL/min/kg |

Then there is this compound:
Task: State, in one line, measured CLhep predicted of CCONC(=O)c1cn(C)c(=O)c(C)c1Nc1ccc(Br)cc1F
Result: 5 mL/min/kg

* * *

Documented inhibition across a set of compounds
target: Glycogen synthase kinase-3 beta (Homo sapiens); experiment: Inhibition of GSK3b at 10 uM
Your answer should be a number followed by the unit of measure.

Recorded inhibition, per entry:
| substanceSmiles | inhibition |
| --- | --- |
| CONC(=O)c1cn(C)c(=O)c(C)c1Nc1ccc(Br)cc1F | 12% |
| Cc1c(Nc2ccc(Br)cc2F)c(C(=O)NOCCO)cn(C)c1=O | 17% |
| CCONC(=O)c1cn(C)c(=O)c(F)c1Nc1ccc(Br)cc1F | 21% |

Note: attention shifts to another entry.
Task: Specify measured inhibition for CCONC(=O)c1cn(C)c(=O)c(C)c1Nc1ccc(Br)cc1F .
Result: 15%

* * *

Biological target: Serine/threonine-protein kinase Chk1 (Homo sapiens) (UniProt O14757)
Sequence (whole entry): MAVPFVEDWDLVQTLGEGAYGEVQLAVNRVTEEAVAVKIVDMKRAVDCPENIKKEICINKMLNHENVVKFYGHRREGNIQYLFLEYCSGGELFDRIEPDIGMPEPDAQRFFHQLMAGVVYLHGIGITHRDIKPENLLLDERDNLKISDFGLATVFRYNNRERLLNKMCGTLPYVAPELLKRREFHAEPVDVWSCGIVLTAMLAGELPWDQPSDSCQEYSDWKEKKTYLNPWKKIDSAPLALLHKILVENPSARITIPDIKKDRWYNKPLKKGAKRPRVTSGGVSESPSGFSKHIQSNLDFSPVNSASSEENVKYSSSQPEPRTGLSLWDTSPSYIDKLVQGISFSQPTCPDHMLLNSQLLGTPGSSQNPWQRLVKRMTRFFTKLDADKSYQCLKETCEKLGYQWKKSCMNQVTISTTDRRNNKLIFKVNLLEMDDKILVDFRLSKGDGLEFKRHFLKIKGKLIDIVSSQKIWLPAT
Experiment: Inhibition of CHK1 at 10 uM
# key: entry, value: inhibition
Express your answer in %, writing the number without its unit.

Solved cases (3 shown):
| substanceSmiles | inhibition (%) |
| --- | --- |
| Cc1c(Nc2ccc(Br)cc2F)c(C(=O)NOCCO)cn(C)c1=O | 11 |
| CCONC(=O)c1cn(C)c(=O)c(C)c1Nc1ccc(Br)cc1F | 8 |
| CONC(=O)c1cn(C)c(=O)c(C)c1Nc1ccc(Br)cc1F | -3 |

// below: inhibition requested for another compound
Task: Tell me inhibition of CCONC(=O)c1cn(C)c(=O)c(F)c1Nc1ccc(Br)cc1F when tested on Serine/threonine-protein kinase Chk1 (Homo sapiens) (UniProt O14757).
Result: 13
